Hello, the source for this data is patent US20060293506A1, in case you need it.

study-system: p35 form of the 30664188.0.99 gene product (active fragment of PDGFD) (human, UniProt Q9GZP0 250-370)
method: cell-based or functional assay
measure-name: IC50 (ng/mL), BrdU incorporation assay on NIH 3T3 cells

binder | recorded-measurement
CURA2 MAb 1.45 (antibody, IgG2, V domains shown) VH: QVQLVQSGAEVKKPGASVKVSCKASGYTFTSYDINWVRQATGQGLEWMGWMNPNSGNTGYAQKFQGRVTMTRNTSISTAYMELSSLRSEDTAVYYCARGSGYSYGYDYYYGMDVWGQGTTVTVSS VL: DIQMTQSPSSLSASVGDRVTINCRASQGISNDLAWYQQKPGKVPKLLIYAASTLQLGVPSRFSGSGSGTDFTLTISSLQPEDVATYYCQKYNSAPFTFGPGTKVDIK | 750 ng/mL
